Reference source for all entries: paper PMC3424542

# test-target: T1, XtrLin28b ZKD Y133A (Xenopus tropicalis, UniProt B4F6I0 125-175, Y133A)
# T1 sequence: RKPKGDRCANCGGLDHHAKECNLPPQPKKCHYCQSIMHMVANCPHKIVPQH
# experimental-protocol: ITC

{"columns": ["binder", "Kd / nM"],
 "data": [
  ["AAGGAGAA (ssRNA) [rZ1]", 2200]
]}
